# key: entry, value: activity at 100 µM
# Test system: Cat Papillary Muscles
# assay.comment: Positive Inotropic Activity in Isolated Cat Papillary Muscles
# Assay type: cell-based
# run.conditions: Felis catus; Drug Concentration 10^-4 M; control = 100 percent; read-out: Contractility of Papillary Muscle (peak response)
Where a name gives a salt, the structure may show the parent alone.

compound | activity at 100 µM
CCCCCOc1cc(OC)ccc1-c1nc2cnccc2[nH]1 [Example 35, hydrochloride] | 81%
COc1ccc(-c2nc3cnccc3[nH]2)c(OC)c1OC [Example 22, hydrochloride] | 221%
COc1ccc(-c2nc3cnccc3[nH]2)c(OCC[S+]([O-])c2ccccc2)c1 (stereo not shown) [Example 53] | 96%
COc1cccc(OC)c1-c1nc2cnccc2[nH]1 [Example 33, hydrochloride] | 184%

----------
# Test system: Cat Papillary Muscles
# assay.comment: Positive Inotropic Activity in Isolated Cat Papillary Muscles
# Assay type: cell-based
# run.conditions: Felis catus; Drug Concentration 10^-4 M; control = 100 percent; read-out: Contractility of Papillary Muscle (peak response)
Structures can show the parent of a compound that is named as a salt.

compound | activity at 100 µM [%]
CCSCCOc1cc(OC)ccc1-c1nc2cnccc2[nH]1.Cl | 125
COc1cc(S(C)(=O)=O)ccc1-c1nc2cnccc2[nH]1 | 221
COc1cc(-c2nc3cnccc3[nH]2)cc(OC)c1OC [Example 10, hydrochloride] | 150
Clc1cccc(-c2nc3cnccc3[nH]2)c1 [Example 48, 2-(3-chlorophenyl)imidazo[4,5-c]pyridine] | 176
CN(C)c1ccc(-c2nc3cnccc3[nH]2)cc1 [Example 17, hydrochloride] | 175
COc1ccc(-c2nc3cnccc3[nH]2)c(OCCSc2ccccc2)c1 | 109
Clc1ccc(-c2nc3cnccc3[nH]2)c(Cl)c1 | 157
Cc1ccc(-c2nc3cnccc3[nH]2)c(C)c1 [Example 24, hydrochloride] | 94
COc1cc(OC)cc(-c2nc3cnccc3[nH]2)c1 | 179

----------
# Tested on: Cat Papillary Muscles
# assay.comment: Positive Inotropic Activity in Isolated Cat Papillary Muscles
# Assay type: cell-based
# run.conditions: Felis catus; Drug Concentration 10^-4 M; control = 100 percent; read-out: Contractility of Papillary Muscle (peak response)
# Procedure: Positive Inotropic Activity in Isolated Cat Papillary Muscles […] A platinum hook secured one end of the muscle to an electrode mounted in the bottom of the bath, and a silk thread attached the tendon to a Statham isometric transducer. […] Square-wave pulses (5.0 msec. in duration, three times threshold voltage) delivered through the hook electrode and a second electrode positioned near the top of the muscle evoked 12 contractions/minute, which were recorded on a Grass polygraph. […]
Where a name gives a salt, the structure may show the parent alone.
property: activity at 100 µM

compound | result
COc1ccc(OC)c(-c2nc3cnccc3[nH]2)c1 [Example 31, hydrochloride] | 194%
CCSc1ccc(-c2nc3cnccc3[nH]2)c(OC)c1 [Example 41, hydrochloride] | 196%
c1ccc(-c2nc3cnccc3[nH]2)cc1 [Example 7, 2-Phenylimidazo[4,5-c]pyridine] | 192%
COc1cc(OC)c(-c2nc3cnccc3[nH]2)cc1OC [Example 40, hydrochloride] | 129%
N#Cc1ccc(-c2nc3cnccc3[nH]2)cc1 [Example 14, hydrochloride] | 164%
COCCOc1cc(OC)ccc1-c1nc2cnccc2[nH]1 [Example 37] | 116%

----------
Parameter activity at 100 µM: see the listing below.
# System: Cat Papillary Muscles
# assay.comment: Positive Inotropic Activity in Isolated Cat Papillary Muscles
# Assay type: cell-based
# run.conditions: Felis catus; Drug Concentration 10^-4 M; control = 100 percent; read-out: Contractility of Papillary Muscle (peak response)
Structures can show the parent of a compound that is named as a salt.

compound | activity at 100 µM [%]
CCCCOc1ccc(-c2nc3cnccc3[nH]2)cc1 [Example 19, hydrochloride] | 288
COc1ccc(-c2nc3cnccc3[nH]2)cc1OC.Cl [Example 56, hydrochloride] | 252
COc1ccc(-c2nc3cnccc3[nH]2)cc1.Cl [Example 15, hydrochloride] | 204
COc1cc(C(F)(F)F)ccc1-c1nc2cnccc2[nH]1.Cl [Example 59, hydrochloride] | 134
COc1ccc(-c2nc3cnccc3[nH]2)c(OC)c1 [Example 8, hydrochloride] | 172
COc1cc(Cl)ccc1-c1nc2cnccc2[nH]1 [Example 20, hydrochloride] | 146
COc1cccc(-c2nc3cnccc3[nH]2)c1 [Example 16, hydrochloride] | 213
COc1cc(Br)ccc1-c1nc2cnccc2[nH]1 [Example 57, hydrochloride] | 175
Fc1ccccc1-c1nc2cnccc2[nH]1 [Example 6, hydrochloride] | 152
CCCOc1cc(OC)ccc1-c1nc2cnccc2[nH]1 | 335
Cc1ccc(-c2nc3cnccc3[nH]2)cc1C [Example 46, hydrochloride] | 225
CSc1ccc(-c2nc3cnccc3[nH]2)cc1.Cl [Example 9, hydrochloride] | 205
COc1cc([S+](C)[O-])ccc1-c1nc2cnccc2[nH]1 (stereo not shown) | 200
Cc1ccccc1-c1nc2cnccc2[nH]1 [Example 26, hydrochloride] | 188
COc1c(C)cc(-c2nc3cnccc3[nH]2)cc1C [Example 21, hydrochloride] | 215
CCOc1cc(SC)ccc1-c1nc2cnccc2[nH]1 | 149
CCCOc1cc([S+](C)[O-])ccc1-c1nc2cnccc2[nH]1 (stereo not shown) | 159
COc1ccc(-c2nc3cnccc3[nH]2)c(OCCSC)c1 | 140
CCOc1ccc(-c2nc3cnccc3[nH]2)cc1.Cl [Example 13, hydrochloride] | 157
COc1ccc(-c2nc3cnccc3[nH]2)c(OCCCSC)c1 | 129
CS(=O)(=O)c1ccc(-c2nc3cnccc3[nH]2)cc1 [Example 4, hydrochloride] | 139
Fc1ccc(-c2nc3cnccc3[nH]2)cc1 [Example 5, hydrochloride] | 163
COc1ccc(-c2nc3cnccc3[nH]2)c(OCC[S+](C)[O-])c1 (stereo not shown) | 185
Fc1cccc(-c2nc3cnccc3[nH]2)c1 [Example 1, hydrochloride] | 157
Clc1cc(Cl)cc(-c2nc3cnccc3[nH]2)c1 [Example 3, hydrochloride] | 146
COc1cc(SC)ccc1-c1nc2cnccc2[nH]1.Cl [Example 23, hydrochloride] | 142
CCCCOc1cc(OC)ccc1-c1nc2cnccc2[nH]1 | 140
COc1cc([N+](=O)[O-])ccc1-c1nc2cnccc2[nH]1 | 145
Cc1ccc(-c2nc3cnccc3[nH]2)cc1 [Example 25, hydrochloride] | 130
Clc1ccc(-c2nc3cnccc3[nH]2)cc1 [Example 49, 2-(4-chlorophenyl)imidazo[4,5-c]pyridine] | 175
CCOc1cc(OC)ccc1-c1nc2cnccc2[nH]1 | 130
COCCCOc1cc(OC)ccc1-c1nc2cnccc2[nH]1 | 147
COc1cccc(-c2nc3cnccc3[nH]2)c1OC [Example 11, hydrochloride] | 90
COc1ccccc1-c1nc2cnccc2[nH]1 [Example 18, hydrochloride] | 163
COc1cc(OC)c(-c2nc3cnccc3[nH]2)c(OC)c1 | 137
O=[N+]([O-])c1cccc(-c2nc3cnccc3[nH]2)c1 [Example 12, hydrochloride] | 105
Cc1cccc(-c2nc3cnccc3[nH]2)c1 [Example 2, 2-(3-Methylphenyl)imidazo[4,5-c]pyridine] | 181
